Measured values drawn from patent US20210388087A1 for this set.

# SYSTEM_TESTED: T1, Human CD3eg linker (human)
# T1 construct: single-chain construct; also called recombinant human CD3
# T1 chain: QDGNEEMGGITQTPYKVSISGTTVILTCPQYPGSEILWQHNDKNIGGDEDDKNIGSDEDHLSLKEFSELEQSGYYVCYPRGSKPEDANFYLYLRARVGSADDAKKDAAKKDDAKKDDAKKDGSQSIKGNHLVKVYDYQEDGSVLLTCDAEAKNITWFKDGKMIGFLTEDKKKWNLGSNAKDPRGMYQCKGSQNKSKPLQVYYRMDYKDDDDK
# PROTOCOL_NOTES: SPR, vs unmutated H183/L072
MEASUREMENT_NAME: fold change of affinity (fold)
I only need the number, in fold, no unit after it.

| BINDER | UNIT_ABBREV | fold change of affinity |
| --- | --- | --- |
| dBBDu183H F100gS/dBBDu072L (antibody, name in Kabat numbering, V domains shown) VH: QVQLVESGGGLVQPGRSLRLSCAASGFTFSNAWMHWVRQAPGKGLEWVAQIKDKGNAYAAYYAPSVKGRFTISRDDSKNSIYLQMNSLKTEDTAVYYCHYVHYASASTVLPASGVDAWGQGTTVTVSS VL: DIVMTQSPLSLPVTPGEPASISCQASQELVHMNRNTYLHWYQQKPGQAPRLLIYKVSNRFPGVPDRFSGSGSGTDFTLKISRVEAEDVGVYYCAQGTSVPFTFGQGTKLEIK | fold | 1.4 |

## Input # query: fold change of affinity of entry dBBDu183H S100aY/dBBDu072L (antibody, name in Kabat numbering, V domains shown) VH: QVQLVESGGGLVQPGRSLRLSCAASGFTFSNAWMHWVRQAPGKGLEWVAQIKDKGNAYAAYYAPSVKGRFTISRDDSKNSIYLQMNSLKTEDTAVYYCHYVHYASAYTVLPAFGVDAWGQGTTVTVSS VL: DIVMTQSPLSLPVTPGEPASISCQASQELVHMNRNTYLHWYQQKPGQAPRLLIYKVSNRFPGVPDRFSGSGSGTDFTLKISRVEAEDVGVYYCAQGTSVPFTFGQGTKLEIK
## Output 1.2

## Input # query: fold change of affinity of entry dBBDu183H Y94R/dBBDu072L (antibody, name in Kabat numbering, V domains shown) VH: QVQLVESGGGLVQPGRSLRLSCAASGFTFSNAWMHWVRQAPGKGLEWVAQIKDKGNAYAAYYAPSVKGRFTISRDDSKNSIYLQMNSLKTEDTAVYYCHRVHYASASTVLPAFGVDAWGQGTTVTVSS VL: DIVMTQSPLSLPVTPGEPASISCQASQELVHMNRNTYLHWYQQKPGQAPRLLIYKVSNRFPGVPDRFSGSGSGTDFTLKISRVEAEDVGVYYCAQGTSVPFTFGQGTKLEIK
## Output 0.3
